Test: In vivo pharmacokinetics after subcutaneous administration
Settings: male, mouse, plasma, sc, Balb/c mice, single dose 0.333 mg/g, n = 3
Attribute measured: Cmax

{"Molecule": "O=C(/C=C/c1cccc(S(=O)(=O)Nc2ccccc2)c1)NO [belinostat, Belinostat]", "Endpoint value": "3390 ng/mL"}

###

Experiment: In vivo pharmacokinetics after subcutaneous administration
Conditions: male, mouse, plasma, sc, Balb/c mice, single dose 0.333 mg/g, n = 3
Attribute measured: Tmax (min)

{"Smiles entry": "O=C(/C=C/c1cccc(S(=O)(=O)Nc2ccccc2)c1)NO", "Attribute measured": "Tmax", "Endpoint value": 41.4}

###

Assay: In vitro cytotoxicity of PBMCs
Assay type: cell-based
Conditions: male, human, peripheral blood mononuclear cells (PBMCs); 10 μM of belinostat

{"Smiles entry": "O=C(/C=C/c1cccc(S(=O)(=O)Nc2ccccc2)c1)NO", "viability at 72 h, 10 µM [%]": 20}

###

Experiment: In vivo pharmacokinetics after subcutaneous administration
Details: male, mouse, plasma, sc, Balb/c mice, single dose 0.333 mg/g, n = 3

{"Smiles entry": "O=C(/C=C/c1cccc(S(=O)(=O)Nc2ccccc2)c1)NO", "half-life [h]": 3.29}

###

Assay: In vivo pharmacokinetics after subcutaneous administration
Details: male, mouse, plasma, sc, Balb/c mice, single dose 0.333 mg/g, n = 3
Description: The in vivo pharmacokinetic study was performed on healthy male BALB/c mice (weight: 16–20 g) obtained from the Laboratory Animal Center of the National Science Council, Taipei, Taiwan. […] Plasma samples (40 μL) were mixed with 20 μL of internal standard solution (carbamazepine […]) and 1000 μL of methanol was added to induce protein precipitation. […] The final dry residue was resuspended in methanol and analyzed by HPLC. […]
Attribute measured: AUC(0-inf)

{"Smiles entry": "O=C(/C=C/c1cccc(S(=O)(=O)Nc2ccccc2)c1)NO", "Endpoint value": "17500 ng·h/mL"}

###

Experiment: In vivo pharmacokinetics after subcutaneous administration
Details: male, mouse, plasma, sc, Balb/c mice, single dose 0.333 mg/g, n = 3, read-out: Ke (elimination rate) (converted)
Attribute measured: k el (s⁻¹)

{"Smiles entry": "O=C(/C=C/c1cccc(S(=O)(=O)Nc2ccccc2)c1)NO", "Endpoint value": "6.94e-05"}
